ASSAY NOTES: In vitro enzyme assay to detect hydrolysis of chlorophenol red-beta-D-[…] directly proportional to the number of Toxoplasma stably expressing beta-galactosidase
Type: functional, organism-based, Toxoplasma gondii
Set-up: scale not given: in the data most compounds retested in dose-response had high values
CONDITIONS: 10 µM
Out of some 85,000 compounds screened, about 440 (0.52%) showed an effect of 50% or more. The list comes from a sample in which strong results are over-represented; it also holds close analogues and randomly drawn compounds.
Values of Percent Effect greater than or equal to 10% map to true (1); values below map to false (0).

Is reported Percent Effect greater than or equal to 10% here: CC(C)n1cc(S(=O)(=O)N2CCSCC2)cn1
true (1)

Another compound: Cc1nc(C2(O)CCCNCC2)sc1CCOc1ccccc1.Cl (stereo not drawn)
false (0)

----------
ASSAY NOTES: In vitro enzyme assay to detect hydrolysis of chlorophenol red-beta-D-[…] directly proportional to the number of Toxoplasma stably expressing beta-galactosidase
Assay type: functional, organism-based, Toxoplasma gondii
Set-up: scale not given: in the data most compounds retested in dose-response had high values
CONDITIONS: 10 µM
The campaign covered roughly 85,000 compounds. About 440 (0.52%) showed an effect of 50% or more. The full list was thinned out, with strong results kept by preference.
Reported Percent Effect values for a set of molecules
Field format: number, assumed %, no unit text.

>>> numeric_result("O=C(NCC1CCCO1)c1nc2c(s1)CCCN2Cc1ccccc1 (stereo unspecified)")
-17.89
>>> numeric_result("COc1c(C(=O)NCC2CCCO2)nnn1Cc1ccccc1 (stereo unspecified)")
62.42
>>> numeric_result("CCNC(=O)c1nnn(Cc2ccccc2)c1OC")
-0.1195
>>> numeric_result("COc1c(C(=O)NCc2cccnc2)nnn1Cc1ccc(C)cc1")
3.825
>>> numeric_result("CCn1nc2c(cc1=O)CN(c1ncnc3sccc13)CC2")
58.75

For O=C(NCc1cccnc1)c1cn(CCc2ccccc2)nn1 , what is its reported Percent Effect?
7.216

----------
ASSAY NOTES: In vitro enzyme assay to detect hydrolysis of chlorophenol red-beta-D-[…] directly proportional to the number of Toxoplasma stably expressing beta-galactosidase
Format: functional, organism-based, Toxoplasma gondii
Set-up: scale not given: in the data most compounds retested in dose-response had high values
CONDITIONS: 50 µM
Out of some 85,000 compounds screened, about 440 (0.52%) showed an effect of 50% or more. The sample as a whole holds a higher share of strong results than the screen did.
Reported Percent Effect values for a set of compounds
Field format: number, assumed %, no unit text.

Here's what some known entries look like.
>>> numeric_result("CCC(C)C(=O)Nc1ccc(C(=O)N2CCCC2)cc1 (configuration not stated)")
-4.343
>>> numeric_result("CCC(CO)Nc1ncc(C(F)(F)F)cc1Cl (configuration not stated)")
-11.03
>>> numeric_result("CNS(=O)(=O)c1ncccc1N")
-16.66
>>> numeric_result("Cc1noc(CN(C)Cc2cncn2C(C)C)n1")
-12.13

For NCc1cc2c([nH]c1=O)CCC2 , what is its reported Percent Effect?
5.937

Another compound: CCOc1ccc(NC(=O)[C@H](C)N(C)C)cc1CO
1.908

Another compound: Cc1ccc(NC(=O)CCCNC(=O)C2CC2)cc1
98.6

----------
ASSAY NOTES: In vitro enzyme assay to detect hydrolysis of chlorophenol red-beta-D-[…] directly proportional to the number of Toxoplasma stably expressing beta-galactosidase
Type: functional, organism-based, Toxoplasma gondii
Set-up: scale not given: in the data most compounds retested in dose-response had high values
CONDITIONS: 10 µM
The campaign covered roughly 85,000 compounds. About 440 (0.52%) showed an effect of 50% or more. The sample holds strong results, similar compounds and a random draw of the others, so the mix is not that of the screen.
EXPERIMENTAL ENDPOINT: Percent Effect (%)
Field format: number, assumed %, no unit text.

Here's what some known entries look like.
>>> numeric_result("Cc1nc(C2CCNCC2)cc(N(C)Cc2cc3cc(F)ccc3[nH]2)n1")
63.01
>>> numeric_result("CCc1ccc(C(=O)N2CCN(CCS(C)(=O)=O)CC2)o1")
-13.13
>>> numeric_result("Cc1ncc(CN2CCOC(c3ccc(-c4ccccc4F)cn3)C2)s1 (stereo unspecified)")
56.75
>>> numeric_result("OC[C@H]1CCCN1c1nccc(-c2cncnc2C2CCCCC2)n1")
29.63
>>> numeric_result("CCN(Cc1c(F)cccc1Cl)c1cc(C2CCNCC2)nc(C)n1")
79.97

For OC[C@H]1CCCN1c1nccc(-c2c[nH]nc2C2CCCCC2)n1 , what is its reported Percent Effect?
54.25

Another compound: CCN(Cc1ccncc1)c1cc(C2CCCNC2)nc(C)n1 (stereo unspecified)
14.41

Another compound: COc1ccccc1-c1ccccc1CC1(C(=O)O)CCNCC1
8.204
